test system: MDA-MB-231; assay: Anti-invasive activity against human MDA-MB-231 cells up to 3 uM after 5 hrs by matrigel assay; type: functional, cell-based
The source made the active and inactive calls. No cut-off for these calls is given here.
ENDPOINT_NAME: inhibition

Examples with answers:
COc1cc2c(Oc3ccc(NS(=O)(=O)c4ccccc4C(F)(F)F)cc3F)ccnc2cc1OCCCN1CCN(C)CC1 | Active
COc1cc2c(Oc3ccc(NS(=O)(=O)c4cc(F)ccc4F)cc3F)ccnc2cc1OCCCN1CCN(C)CC1 | Active
COc1cc2c(Oc3ccc(NS(=O)(=O)c4ccccc4OC(F)(F)F)cc3F)ccnc2cc1OCCCN1CCN(C)CC1 | Active
COc1cc2c(Oc3ccc(NS(=O)(=O)c4c(F)cccc4F)cc3F)ccnc2cc1OCCCN1CCN(C)CC1 | Active

Pending compound:
Name the recorded inhibition of the compound listed here: COc1cc2c(Oc3ccc(NS(=O)(=O)c4cc(F)ccc4F)cc3F)ccnc2cc1OCCCN1CCCC(C)C1 (stereo not given) Active

* * *

IC50, Proto-oncogene tyrosine-protein kinase Src (Homo sapiens): measured values
ENDPOINT_NAME: IC50 (µM)

COc1cc2c(Oc3ccc(NS(=O)(=O)c4cc(F)ccc4F)cc3F)ccnc2cc1OCCCN1CCCC(C)C1 (stereo unspecified) | 0.113
COc1cc2c(Oc3ccc(NS(=O)(=O)c4ccccc4C(F)(F)F)cc3F)ccnc2cc1OCCCN1CCC(C)CC1 | 1.72

P: COc1cc2c(Oc3ccc(NS(=O)(=O)c4ccccc4OC(F)(F)F)cc3F)ccnc2cc1OCCCN1CCN(C)CC1
Q: COc1cc2c(Oc3ccc(NS(=O)(=O)c4cc(F)ccc4F)cc3F)ccnc2cc1OCCCN1CCN(C)CC1
R: COc1cc2c(Oc3ccc(NS(=O)(=O)c4ccccc4C(F)(F)F)cc3F)ccnc2cc1OCCCN1CCN(C)CC1
S: COc1cc2c(Oc3ccc(NS(=O)(=O)c4c(F)cccc4F)cc3F)ccnc2cc1OCCCN1CCN(C)CC1
Put the molecules in ascending order of IC50. Put the labels in the requested order and write them down. S, Q, R, P

* * *

// reported microsomal CLint at 5 µM per item
assay: Intrinsic clearance in human liver microsomes at 5 uM after 60 mins in presence of NADPH by LC-MS/MS analysis; assay type: ADME, Microsome; conditions: read-out: CLH
Provide the reading as a plain figure in µL/min/mg.

COc1cc2c(Oc3ccc(NS(=O)(=O)c4cc(F)ccc4F)cc3F)ccnc2cc1OCCCN1CCN(C)CC1 | 60.5

Pending molecule:
Name the recorded microsomal CLint at 5 µM of the molecule listed here: COc1cc2c(Oc3ccc(NS(=O)(=O)c4cc(F)ccc4F)cc3F)ccnc2cc1OCCCN1CCCC(C)C1 (configuration not stated) 18.3

* * *

IC50, Epidermal growth factor receptor (Homo sapiens, UniProt P00533): measured values
Provide the reading as a plain figure in nM.

COc1cc2c(Oc3ccc(NS(=O)(=O)c4cc(F)ccc4F)cc3F)ccnc2cc1OCCCN1CCCC(C)C1 (configuration not stated) | 1130

Pending molecule:
Name the recorded IC50 of the molecule listed here: COc1cc2c(Oc3ccc(NS(=O)(=O)c4ccccc4C(F)(F)F)cc3F)ccnc2cc1OCCCN1CCOCC1 650

* * *

assay: Apparent permeability from apical to basolateral side in human Caco2 cells at 10 uM after 2 hrs by LC-MS/MS analysis; type: ADME, cell-based; details: Caco-2
ENDPOINT_NAME: Papp A→B at 2 h, 10 µM (×10⁻⁶ cm/s)
Provide the reading as a plain figure in ×10⁻⁶ cm/s.

COc1cc2c(Oc3ccc(NS(=O)(=O)c4cc(F)ccc4F)cc3F)ccnc2cc1OCCCN1CCN(C)CC1 | 7.4

Name the recorded Papp A→B at 2 h, 10 µM of the molecule listed here: COc1cc2c(Oc3ccc(NS(=O)(=O)c4cc(F)ccc4F)cc3F)ccnc2cc1OCCCN1CCCC(C)C1 (configuration not stated) 2.4
